test system: NCI/ADR-RES ovarian; test: NCI-60 one-dose screen, 48 h (100 = growth as untreated, 0 = no growth, -100 = all killed); conditions: 10 µM unless noted
The panel holds about 83,000 compounds, 20% with a hit somewhere; the sample as a whole holds those more often.
Let's look at some compounds and their measured growth.
Assay metric: growth (%)

Compound	Assay metric	Unit label	Numeric value
Nc1cccc2c1CN(C1CCC(=O)NC1=O)C2=O (centres undefined)	growth	%	104
C=CCn1c(C)nc2ccc(Nc3nc(Nc4ccc(F)cc4)nc4ccccc34)cc21	growth	%	38.4
CCN(C(=O)c1cc2ncccc2[nH]1)[C@H]1CCC[C@@H](NCc2cccc(F)c2)C1	growth	%	89.1
CCN1C(=O)N(CC)C2Nn3c(s/c(=C4\C(=O)N(C5CCCC5)c5ccccc54)c3=O)=NC21 (centres undefined)	growth	%	10.9
CC(=O)C1CCC(C)=CC1=O (centres undefined)	growth	%	95.6
O=C(/C=C/CN1CCOCC1)Nc1cc2c(Nc3cccc(Cl)c3F)ncnc2cc1OCCOC(F)F	growth	%	60.9
COc1cc(CNC(=O)CSc2nc3ccccc3c(=O)n2Cc2cc(OC)c(OC)c(OC)c2)cc(OC)c1OC	growth	%	103
COC1=CC(c2ccc[nH]2)=N/C1=C\c1[nH]c(C)c(CCCn2cc(CCCCCCCCC[C@@H]3Cc4cc(O)ccc4C4CC[C@]5(C)[C@@H](O)CC[C@H]5C43)nn2)c1C (some centres undefined)	growth	%	69.5
NC(=O)NNC(=O)c1ccccc1	growth	%	103

src = PubChem BioAssay (NCI)
